All values here come from PubChem BioAssay (NCI).

Can you tell me TGI for the items I'm about to list?
Tested on: UO-31 renal
Assay: NCI tumour cell line growth inhibition, 48 h

Annotate the compound Cc1ccc2c(c1)CC1(C2)Cc2ccc(C)cc2C1=O (configuration not stated) with its measured TGI. > 100 µM

Look up TGI of COC(=O)/C(=N\N)C(C(=O)C(=O)Nc1nc(=S)[nH][nH]1)c1nc2ccc([N+](=O)[O-])cc2[nH]c1=O (configuration not stated) and report it. > 100 µM

Tell us which TGI value is on record for "COc1cccc(-c2nn(-c3ccccc3)cc2-c2ccnc(NCCCNS(=O)(=O)c3ccc(C(F)(F)F)cc3)c2)c1" > 100 µM

Please report the measured TGI for "C/C(=N\NC(=S)N1CCN(c2ccccn2)CC1)c1cccc2cccnc12" > 56.5 µM

Fill in TGI for record "Nc1ncnc2c1ncn2CCCCC(=O)O" > 100 µM

Write down TGI measured for item "CCOC(=O)c1nc2cc(F)cc(F)c2[nH]c1=O" > 100 µM

Consider the compound "CCc1cccc(NC(=O)c2cc(/C=C/c3ccccc3)[nH]c(=S)n2)c1" and give its recorded TGI. > 100 µM

Give the value of TGI reported for the following: "COc1cc2c(cc1O)C(=O)O[C@@H]1CC=C3CCN(C)[C@H]3[C@H]21" > 25 µM

Give a short answer stating reported TGI for NC(Cc1c[nH]c2cccc(F)c12)C(=O)O (configuration not stated) . > 4500 µM

Provide measured TGI value, entry: "c1ccc(/C(=N\Nc2nc3ccccc3s2)c2ccccn2)cc1" 16.3 µM

Look up TGI of "O=C1CCc2ccc(O)c(c2)Oc2ccc(cc2)[C@@H]2O[C@@H]2CO1" and report it. > 100 µM

Fill in reported TGI for this entry: COc1ccc(NC(=O)c2cccc(C3CCc4c(cc(OC)c(OC)c4OC)O3)c2)cc1 (configuration not stated) > 100 µM

Identify measured TGI corresponding to COC(=O)c1cc2c(cc1C(=O)OC)[C@@]1(C)CCCC(C)(C)C1CC2 (some centres not stated) 35 µM

Please indicate TGI recorded for "O=C1NC(N2CCCCC2)=N/C1=C\c1ccco1" > 100 µM

Name the recorded TGI of the compound listed here: O=c1[nH]c(=O)n(C2OC(CO)C(O)C2O)cc1F (configuration not stated) 1.91 µM

Give the value of TGI reported for the following: CC(C)(C)OC(=O)C1/C(=C/CBr)CN1C(=O)OC(C)(C)C (configuration not stated) 33.1 µM

Retrieve TGI measured for COC1C(=O)N(SC)C1c1ccccc1Cl (configuration not stated) and print it. 33.3 µM

Answer with the recorded TGI for the compound listed here: COC1(OC)C2C=CC1C([C@](C)(N)CO)C2 (some centres not stated) > 100 µM

Supply reported TGI belonging to this compound: Cc1ccc(NC(=O)CCC(=O)C2Cc3ccccc3C2=O)cc1C (configuration not stated) > 100 µM

Identify the reported TGI for the following entry. "CC(=O)c1ccc(Oc2c3ccccc3nc3occc23)cc1" > 100 µM

Please supply the value of reported TGI for the item "C[C@H]1S[C@H](c2c(F)cccc2F)n2c1nc1ccccc12" > 100 µM

Consider the compound C=CCC1C(=O)CC2(C)C(CC=C)C(=O)CC12C (configuration not stated) and give its recorded TGI. > 100 µM
